Test system: MS2 coat protein
Test details: apparent KD of MS2 coat protein; designed switch direction (-1 OFF switch, 1 ON switch): -1; higher = weaker reporter binding
Stated conditions: input ligand: microRNA oligo, concentration not stated
Endpoint name: apparent KD of MS2 coat protein (nM)

• GGCUGCAAUGUAGGAUAUCUGCACGUUUAGUGCAGAGAAGGACAUGAGGAUCACCCAUGUAUAGUAGCUUCGGCUACAGCAGCC [ENG1-D2] (Eterna round: R96, puzzle: Exclusion NG 1) = 11.4
• ACAUGAGGAUCACCCAUGUAAUCAUAAUGGCUGAUGUAGAGUCAGGAUAUGUGUGGCUUACUAUCGCAGAAGGGACAAGACUGG [Deportation 33 - Jieux - Exclusion NG 3] (Eterna round: R96, puzzle: Exclusion NG 3) = 14.2
• AAGAACUAAGGAUAUACAUGAGGAUCACCCAUGUCUUUUACAUGUUACUGGCCCGCAUGUAGAAGGUAGAAAAG [Tianrasoed] (Eterna round: R96, puzzle: Exclusion 3) = 74.4
• UUUUUUGUAGUGAGGAUAUCGUUGAGGAUGUGGAUCGAGAAGGCACAUGAGGAUCACCCAUGUUAGAUGUGGUU [JR_BMOE4_Sub083] (Eterna round: R96, puzzle: Brourd's mod of Exclusion 4) = 134
• GCAGCGUAUGUAGGAUAUCGGUCAGUUUCUGAUCGAGAAGGACAUGAGGAUCACCCAUGUAUAUUCCGUCGUGAGACGGGCUGC [JL ENG1 3.69] (Eterna round: R96, puzzle: Exclusion NG 1) = 14.3
• GCUCGCGGGCAAGGAUAUCCUACGCUGUUCUGGCCCGUGUCUGUUACAUGAGGAUCACCCAUGUGGGAGAAGGUGCACCAGGGC [Design 46] (Eterna round: R96, puzzle: Exclusion NG 2) = 11.9
• AGAGUGCUGCGAGGAUAUACAUGAGGAUCACCCAUGUUUUCCUGUGAGGCAAAGCCUCACAGGAUGUAGAAGGCGCAGUACUCA [Mat - Exclusion NG 2 - Mod of JL - D39] (Eterna round: R96, puzzle: Exclusion NG 2) = 11.1
• ACAUGAGGAUCACCCAUGUUUGGCUGGUCCUCUCCGGCUGUCGAGGAUAUAGUACGGUAUCCGCGCUAGAAGGUGAGGGCCGGC [Aenatbe] (Eterna round: R96, puzzle: Exclusion NG 3) = 10.1
• AGUCAGGCGGUAGGAUAUCCAAACCGAGUGACCCUUUCAUAACAUGAGGAUCACCCAUGUCGGUGGGAGAAGGGCCGUACGGCG [JL ViennaUCT Atra mod 2] (Eterna round: R96, puzzle: Exclusion NG 2) = 145

----------
Tested on: MS2 coat protein
Test details: apparent KD of MS2 coat protein; designed switch direction (-1 OFF switch, 1 ON switch): -1; higher = weaker reporter binding
Stated conditions: Eterna round: R95; input ligand: microRNA oligo, concentration not stated
Endpoint name: apparent KD of MS2 coat protein (µM)

* GACUAAAUGUGGUUUGGUUACAUGAGGAUCACCCAUGUUGGUCUAAGAACAUGUCUUUUGUACGCUUGUCUUAUAUA [JR_SV3TOV1_Sub067] (puzzle: Sensor v3, turn-off variant 1) | 0.324
* AAGAAGAUAGGAUAUACGAGGAGAGAAGAGAAGAAAGGAGGACAUGAGGAUCACCCAUGUAGAAGGAUCAGGAA [JR_Exclu2_Sub061] (puzzle: Exclusion 2) | 0.041
* AAAACAAACUUUUUGCUCGUCUUAUAUGACGCUCGAGUCACAUGAGGAUCACCCAUGUCUUCCUGUUUGAUAGUUGA [JR_SV3TOV2_Sub055] (puzzle: Sensor v3, turn-off variant 2) | 0.113
* CUUUUGUGAGGAUAUCAGUAGUAAAUAAAUAAAAUUACUUCUGAGAAGGCACAUGAGGAUCACCCAUGUUCCUC [salish99_ex3_r3_087] (puzzle: Exclusion 4) | 0.0357
* AAUAACAGAGGAUAUACUGUUUUAUGUAUUUAUUAUUUUAAACAUGAGGAUCACCCAUGUAGAAGGCUGAAUGA [JMF 55] (puzzle: Exclusion 2) | 0.0207
* CAUGUCUGAGGAUAUCGUUAUUUGUACAUGAGGAUCACCCAUGUCCUAUUUAUUAUAUUUCGAGAAGGCAGUGUAU [JR_E5_Sub093] (puzzle: Exclusion 5) | 0.0156
* AAUUCACAUGAGGAUCACCCAUGUCAGGAUAUGGUUUCACGUGUUUCGGUGCUUGAGGCCAGAAGGGACAGCUA (puzzle: Exclusion 1) | 0.0624
* GUGUAAGGAGGAUAUACAUGAGGAUCACCCAUGUGAAUAAGAUAGAAUAAGAUAAAGUGUAGAAGGCUUAGUGU [Excluse me!!! 25 - Jieux - Exclusion 3] (puzzle: Exclusion 3) | 0.0386
* UUUCUCGUUGUGAGGAUAUCGUUUUUGUUUUGGAUCGAGAAGGCACAUGAGGAUCACCCAUGUUUGUUGUGGUU [JR_BMOE4_Sub088] (puzzle: Brourd's mod of Exclusion 4) | 0.0933
* GAAAAGGUAGGAUAUACGAAAAAAAAGGGUAGUAAAAAAACACAUGAGGAUCACCCAUGUAGAAGGACCAAAAG [salish99_ex2_r3_079] (puzzle: Exclusion 2) | 0.0209
* CUUUUGUGAGGAUAUCAGUAGUAAAUAAAUAAAUUUACUACUGAGAAGGCACAUGAGGAUCACCCAUGUUCCUC [salish99_ex3_r3_084] (puzzle: Exclusion 4) | 0.0454
